- target-of-assay: Apolipoprotein L1 (Homo sapiens, UniProt O14791)
- assay-protocol: Inhibition of APOL1 G1 variant in human HEK293-T-REx cells measured by Thallium assay
pIC50: −log10 of the molar value.
Here the recorded pIC50 is given for each entry.

{"columns": ["compound", "pIC50"],
 "data": [
  ["O=C(CCc1c(-c2ccc(F)cc2)[nH]c2c(F)cc(Br)cc12)N[C@H]1CCNC1=O", "> 6.60"],
  ["Cc1cccc2c(CCC(=O)N[C@@H]3C(=O)NC[C@H]3O)c(-c3ccc(F)cc3)[nH]c12", "> 6.60"],
  ["Cc1ccc(-c2[nH]c3c(F)cc(F)cc3c2CCC(=O)N[C@H]2CCNC2=O)cc1", "> 6.60"],
  ["O=C(CCc1c(-c2cc(F)cc(F)c2)[nH]c2c(F)cc(F)cc12)N[C@@H]1C(=O)NC[C@H]1O", "> 6.60"],
  ["O=C(CCc1c(-c2ccc(F)cc2)[nH]c2ccc(Cl)cc12)N[C@@H]1C(=O)NC[C@H]1O", "> 6.60"],
  ["O=C(CCc1c(-c2ccc(F)cc2)[nH]c2cc(O)ccc12)N[C@H]1C(=O)NC[C@@H]1O", "< 6.00"],
  ["O=C(CCc1c(-c2ccc(F)cc2)[nH]c2c(Cl)cc(F)cc12)N[C@@H]1C(=O)NC[C@H]1O", "> 6.60"],
  ["N#Cc1cccc(-c2[nH]c3ccc(F)cc3c2CCC(=O)N[C@H]2CCNC2=O)c1", "< 6.00"],
  ["O=C(CCc1c(-c2ccccc2)[nH]c2c(F)c(F)c(F)cc12)N[C@@H]1C(=O)NC[C@H]1O", "> 6.60"],
  ["O=C(CCc1c(-c2ccc(F)cc2)[nH]c2c(F)cc(Cl)cc12)N[C@H]1CCNC1=O", "> 6.60"],
  ["CC1C[C@H](NC(=O)CCc2c(-c3ccc(F)cc3)[nH]c3c(F)cc(F)cc23)C(=O)N1 (stereo partly drawn)", 6.60],
  ["Cc1cccc2c(CCC(=O)N[C@@H]3C(=O)NC[C@H]3O)c(-c3ccccc3)[nH]c12", "> 6.60"],
  ["O=C(CCc1c(-c2ccccc2)[nH]c2ccc(Cl)cc12)N[C@@H]1C(=O)NC[C@H]1O", "> 6.60"],
  ["N#Cc1cc(F)c2[nH]c(-c3ccc(F)cc3)c(CCC(=O)N[C@H]3CCNC3=O)c2c1", "< 6.00"],
  ["O=C(CCc1c(-c2ccc(F)cc2)[nH]c2c(F)c(F)c(F)cc12)N[C@@H]1C(=O)NC[C@H]1O", "> 6.60"],
  ["Cc1cc(-c2[nH]c3ccccc3c2CCC(=O)N[C@@H]2C(=O)NC[C@H]2O)ccc1F", "> 6.60"],
  ["C=Cc1cccc2c(CCC(=O)N[C@@H]3C(=O)NC[C@H]3O)c(-c3ccccc3)[nH]c12", "> 6.60"],
  ["O=C(CCc1c(-c2ccc(F)cc2)[nH]c2ccc(F)cc12)N[C@@H]1C(=O)NC[C@H]1O", "> 6.60"]
]}

All values here come from ChEMBL document CHEMBL5052843.
